target: Drosophila OR49b (Drosophila melanogaster); construct: expressed in transfected cells; assay: cell-based; details: OR49b cell line; odorant cc. 1 µM; mean of biological replicates
Sequence (Q9V6H2 whole entry): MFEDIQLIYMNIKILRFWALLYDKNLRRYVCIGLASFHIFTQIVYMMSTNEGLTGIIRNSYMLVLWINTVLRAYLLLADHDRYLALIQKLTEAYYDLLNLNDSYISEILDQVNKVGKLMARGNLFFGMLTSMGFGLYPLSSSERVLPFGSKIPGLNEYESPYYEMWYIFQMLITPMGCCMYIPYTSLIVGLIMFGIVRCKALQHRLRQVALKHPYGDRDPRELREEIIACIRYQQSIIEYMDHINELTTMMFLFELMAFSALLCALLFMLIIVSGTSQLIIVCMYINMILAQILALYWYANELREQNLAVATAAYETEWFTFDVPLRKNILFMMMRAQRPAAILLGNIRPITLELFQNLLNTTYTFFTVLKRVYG
Sequence (Q9VNB5 whole entry partner): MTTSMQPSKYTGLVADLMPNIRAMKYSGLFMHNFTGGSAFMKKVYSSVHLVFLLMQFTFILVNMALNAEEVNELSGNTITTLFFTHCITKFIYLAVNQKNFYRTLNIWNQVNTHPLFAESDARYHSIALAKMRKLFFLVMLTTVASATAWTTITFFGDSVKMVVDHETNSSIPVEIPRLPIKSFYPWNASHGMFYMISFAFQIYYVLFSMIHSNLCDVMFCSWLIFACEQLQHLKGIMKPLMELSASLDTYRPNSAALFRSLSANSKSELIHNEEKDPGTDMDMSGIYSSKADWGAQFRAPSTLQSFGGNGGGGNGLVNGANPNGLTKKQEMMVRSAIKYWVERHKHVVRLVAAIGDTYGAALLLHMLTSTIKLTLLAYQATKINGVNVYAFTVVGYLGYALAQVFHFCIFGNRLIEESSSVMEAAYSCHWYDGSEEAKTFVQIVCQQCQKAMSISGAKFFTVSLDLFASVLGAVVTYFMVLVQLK
Consider the following compounds; for each one, report its Average response.
Answers are plain numbers.

Reference set (8 entries):
[[record]]
compound = "C=C(C)[C@H]1CC=C(C)CC1 [(R)-(+)-limonene]"
assay_value = 0.00

[[record]]
compound = "CC/C=C\\CCOC(C)=O [z3-hexenyl acetate]"
assay_value = 0.0379

[[record]]
compound = "CC1=CCC[C@@]2(C)[C@@H]3CC[C@]12CC3(C)C [(−)-α-neoclovene]"
assay_value = 0.00

[[record]]
compound = "CCCCCC(=O)CC"
assay_value = 0.0421

[[record]]
compound = "C=CCc1ccc(O)c(OC)c1"
assay_value = 0.05

[[record]]
compound = "Cc1cccc(C)c1"
assay_value = 0.00

[[record]]
compound = "CC(=O)OCCC(C)C [isopentyl acetate]"
assay_value = 0.00

[[record]]
compound = "C=CC(C)(O)CCC=C(C)C (stereo not drawn)"
assay_value = 0.00


Parameters: items (list). Returns: Average response for each item.
1. CCCCC(C)=O
2. CCCCCCCCCCCCCC
3. CCCCCCCCCC=O
4. CCCCCCCCCCC
5. Cc1ccc(C(C)C)cc1
6. COC(=O)c1ccccc1 [methyl benzoate]
7. CCc1ccccc1

Output:
1: 0.00; 2: 0.07; 3: 0.00; 4: 0.00; 5: 0.00; 6: 0.13; 7: 0.05

Provide reported Average response for each item, in the same order as listed.
1. CCCC(=O)OCC [ethyl butyrate]
2. COc1cccc(OC)c1
3. C=CC(O)C/C=C\CC (stereo not drawn)
4. CCCCC(C)O (stereo not drawn)

Output:
[0.00, 0.00, 0.00, 0.00]

For every item below, please supply its Average response.
1. C=C1[C@H]2CC[C@@H]3[C@H]2C(C)(C)CCC[C@]13C [(+)-longifolene]
2. O=Cc1ccccc1

Output:
0.08
0.00

The origin of these recorded values is paper PMC10709440.
